- Tested on: Enterobacter cloacae
- protocol_notes: Antibacterial activity against drug-resistant AcrAB-TolC efflux pump deficient Enterobacter cloacae EcdeltaacrA isolate expressing pBGS18 plasmid by Etest
- Assay type: functional
Please go through the items and note down their MIC.

Look over these answered cases.
- compound: "CC(=O)NC[C@H]1CN(c2ccc(N3CCOCC3)c(F)c2)C(=O)O1 [LINEZOLID]"
  reading: "> 256 µg/mL"
- compound: "Cc1onc(-c2ccccc2)c1C(=O)N[C@@H]1C(=O)N2[C@@H]1SC(C)(C)[C@@H]2C(=O)O [OXACILLIN]"
  reading: "> 256 µg/mL"
- compound: "NCC[C@H](O)C(=O)N[C@@H]1C[C@H](N)[C@@H](O[C@H]2O[C@H](CN)[C@@H](O)[C@H](O)[C@H]2O)[C@H](O)[C@H]1O[C@H]1O[C@H](CO)[C@@H](O)[C@H](N)[C@H]1O [AMIKACIN]"
  reading: "2 µg/mL"
- compound: "CN(C)[C@@H]1C(O)=C(C(N)=O)C(=O)[C@@]2(O)C(O)=C3C(=O)c4c(O)cccc4[C@@](C)(O)[C@H]3C[C@@H]12 [TETRACYCLINE]"
  reading: "> 256 µg/mL"
- compound: "CC[C@H]1OC(=O)[C@H](C)[C@@H](O[C@H]2C[C@@](C)(OC)[C@@H](O)[C@H](C)O2)[C@H](C)[C@@H](O[C@@H]2O[C@H](C)C[C@H](N(C)C)[C@H]2O)[C@](C)(O)C[C@@H](C)C(=O)[C@H](C)[C@@H](O)[C@]1(C)O [ERYTHROMYCIN]"
  reading: "> 256 µg/mL"

Provide MIC values for the following items, in order.
1. CC(C)(O/N=C(\C(=O)N[C@@H]1C(=O)N2C(C(=O)[O-])=C(C[n+]3ccccc3)CS[C@H]12)c1csc(N)n1)C(=O)O [CEFTAZIDIME]
2. CO/N=C(\C(=O)N[C@@H]1C(=O)N2C(C(=O)O)=C(COC(N)=O)CS[C@H]12)c1ccco1 [CEFUROXIME]
3. CN(C)c1cc(NC(=O)CNC(C)(C)C)c(O)c2c1C[C@H]1C[C@H]3[C@H](N(C)C)C(O)=C(C(N)=O)C(=O)[C@@]3(O)C(O)=C1C2=O [TIGECYCLINE]
4. NC[C@H]1O[C@H](O[C@H]2[C@H](O)[C@@H](O[C@H]3O[C@H](CO)[C@@H](O)[C@H](N)[C@H]3O)[C@H](N)C[C@@H]2N)[C@H](N)C[C@@H]1O [TOBRAMYCIN]
5. CC(=O)OCC1=C(C(=O)O)N2C(=O)[C@@H](NC(=O)Cc3cccs3)[C@H]2SC1 [CEPHALOTHIN]

1. > 256 µg/mL
2. > 256 µg/mL
3. 0.38 µg/mL
4. 1 µg/mL
5. > 256 µg/mL
